meta.source: ChEMBL document CHEMBL3407452

- Tested on: Human immunodeficiency virus 1
- Protocol text: Antiviral activity against HIV1 3B infected in human CEM cells assessed as reduction in virus-induced cytopathicity after 4 to 5 days by microscopy based syncytium cell formation assay
- Format: functional, organism-based, CCRF-CEM
- Experimental conditions: Human immunodeficiency virus 1, 3B, CCRF-CEM; read-out: EC50
pEC50: −log10 of the molar value.
The following compounds are listed with their measured pEC50 values.

>>> observed_measurement("O=C(NCCCCCCCCNC(=O)c1ccc(O)c(O)c1O)c1ccc(O)c(O)c1O")
"< 4.30"
>>> observed_measurement("O=C(NCCCCN(CCCNC(=O)c1ccc(O)c(O)c1O)C(=O)c1ccc(O)c(O)c1O)c1ccc(O)c(O)c1O")
5.59
>>> observed_measurement("O=C(NCCCCCCCCCCCCNC(=O)c1cccc(O)c1O)c1cccc(O)c1O")
"< 5.70"
>>> observed_measurement("O=C(NCCCOCCOCCOCCCNC(=O)c1ccc(O)c(O)c1O)c1ccc(O)c(O)c1O")
"< 4.30"
>>> observed_measurement("CCCCCCCCOC(=O)c1cc(O)c(O)c(O)c1 [OCTYL_GALLATE]")
"< 5.70"
>>> observed_measurement("CN[C@@H]1[C@H](O[C@@H]2OC[C@@H](O)[C@H](O)[C@H]2O)[C@@H](O)[C@H](O[C@H]2c3cc(C)c(C(=O)N[C@H](C)C(=O)O)c(O)c3-c3c(cc4c(c3O)C(=O)c3cc(OC)cc(O)c3C4=O)[C@@H]2O)O[C@@H]1C")
5.48

Prompt line: What does the record list as pEC50 for O=C(NCCNC(=O)c1cccc(O)c1O)c1cccc(O)c1O ?
Response line: < 5.00

Prompt line: // same read-out, input: O=C(NCCCCNC(=O)c1ccccc1O)c1ccccc1O
Response line: < 5.00
